Form field: pEC50 (one value per entry).
Target: GPR40 (Homo sapiens, UniProt O14842)
Sequence (O14842 whole entry): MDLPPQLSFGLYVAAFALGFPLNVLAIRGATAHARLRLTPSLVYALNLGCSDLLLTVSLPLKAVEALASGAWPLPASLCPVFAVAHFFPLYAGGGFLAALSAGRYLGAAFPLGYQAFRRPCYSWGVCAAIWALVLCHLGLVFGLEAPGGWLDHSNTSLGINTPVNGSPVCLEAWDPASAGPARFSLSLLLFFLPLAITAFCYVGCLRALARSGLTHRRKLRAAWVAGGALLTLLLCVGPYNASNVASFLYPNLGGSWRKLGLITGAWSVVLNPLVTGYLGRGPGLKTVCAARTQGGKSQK
Experiment: Inositol phosphate accumulation assay (A9_GPR40 cells)
Type: cell-based
Set-up: expressed in transfected cells; host or cells: CHO cells stably transfected with GPR40 and aequorin
Settings: inositol phosphate assay, A9_GPR40 cells, 1 hour; read-out: IP3 EC50
pEC50: −log10 of the molar value.

COMPOUND: COc1ccc(F)c(-c2ccc(COc3cccc(C(CC(=O)O)CC4CC4)c3F)cc2C(OC)C(C)(C)C)c1 (single isomer, unassigned) [Example 84.2]
pEC50: > 8.00

COMPOUND: COc1ccc(F)c(-c2ccc(COc3cccc([C@@H](CC(=O)O)CC4CC4)c3)cc2SC(C)C)c1 (single isomer, unassigned) [Example 69.24]
pEC50: 7.00 to 8.00

COMPOUND: COc1ccc(F)c(-c2ccc(COc3cccc(C(CC(=O)O)C4CC4)c3F)cc2C2=CCCC2(C)C)c1 (single isomer, unassigned) [Example 83.14]
pEC50: > 8.00

COMPOUND: CCCC(C)(C)c1cc(COc2cccc(C(C)CC(=O)O)c2)ccc1-c1cc(OC)ccc1F (single isomer, unassigned) [Example 64.11]
pEC50: 6.00 to 7.00

COMPOUND: COc1ccc(F)c(-c2ccc(COc3cccc(C(C)CC(=O)O)c3)cc2C2=CCCCC2)c1 (single isomer, unassigned) [Example 64.21]
pEC50: 7.00 to 8.00

COMPOUND: COc1cc(-c2cc(F)c(COc3cccc([C@@H](CC(=O)O)C4CC4)c3F)cc2[C@H]2CCCC2(C)C)c(F)cn1 (single isomer, unassigned) [Example 83.34]
pEC50: > 8.00
